These data points were gathered from the supplement of paper PMC10567573.

B1: TRIM43 (parent)
chain: NNSWIRKNSTMVNSEDIFLLLCLK

Variants of: B1
ASSAY_EXPLANATION: protein stability index of a GFP-peptide fusion (GPS, HEK-293T) (PSI 1-6); higher = more stable;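 also: lentivirally expressed fusions sorted by FACS into six bins by GFP to DsRed ratio, PSI derived from sequencing read proportions per bin multiplied by bin number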
MEASUREMENT_CONDITIONS: c terminus: a fixed tail appended
Recorded protein stability index values for a group of variants are listed next.
MEASURED_ENDPOINT: protein stability index

{"MUTATION_NOTATION": "V12W", "QUANTITATIVE_READOUT": 2.41}
{"MUTATION_NOTATION": "F18H", "QUANTITATIVE_READOUT": 2.42}
{"MUTATION_NOTATION": "N2F", "QUANTITATIVE_READOUT": 3.5}
{"MUTATION_NOTATION": "L19K", "QUANTITATIVE_READOUT": 1.54}
{"MUTATION_NOTATION": "V12M", "QUANTITATIVE_READOUT": 3.38}
{"MUTATION_NOTATION": "L19W", "QUANTITATIVE_READOUT": 2.33}
{"MUTATION_NOTATION": "N1M", "QUANTITATIVE_READOUT": 2.72}
{"MUTATION_NOTATION": "S3I", "QUANTITATIVE_READOUT": 2.78}
{"MUTATION_NOTATION": "W4G", "QUANTITATIVE_READOUT": 2.06}
{"MUTATION_NOTATION": "E15M", "QUANTITATIVE_READOUT": 2.26}
{"MUTATION_NOTATION": "S9L", "QUANTITATIVE_READOUT": 3.2}
{"MUTATION_NOTATION": "D16P", "QUANTITATIVE_READOUT": 2.23}
{"MUTATION_NOTATION": "K24H", "QUANTITATIVE_READOUT": 2.87}
{"MUTATION_NOTATION": "I5C", "QUANTITATIVE_READOUT": 2.8}
{"MUTATION_NOTATION": "N13C", "QUANTITATIVE_READOUT": 3.44}
{"MUTATION_NOTATION": "I17M", "QUANTITATIVE_READOUT": 2.26}
{"MUTATION_NOTATION": "N1V", "QUANTITATIVE_READOUT": 3.04}
{"MUTATION_NOTATION": "N13Q", "QUANTITATIVE_READOUT": 3.14}
{"MUTATION_NOTATION": "N13P", "QUANTITATIVE_READOUT": 2.87}
{"MUTATION_NOTATION": "C22K", "QUANTITATIVE_READOUT": 2.13}
{"MUTATION_NOTATION": "K7Y", "QUANTITATIVE_READOUT": 2.9}
{"MUTATION_NOTATION": "D16A", "QUANTITATIVE_READOUT": 1.59}
{"MUTATION_NOTATION": "K7S", "QUANTITATIVE_READOUT": 2.95}
{"MUTATION_NOTATION": "M11C", "QUANTITATIVE_READOUT": 2.06}
{"MUTATION_NOTATION": "I5R", "QUANTITATIVE_READOUT": 2.13}
{"MUTATION_NOTATION": "S14L", "QUANTITATIVE_READOUT": 2.31}
{"MUTATION_NOTATION": "L19F", "QUANTITATIVE_READOUT": 2.07}
{"MUTATION_NOTATION": "L19H", "QUANTITATIVE_READOUT": 1.7}
{"MUTATION_NOTATION": "K24G", "QUANTITATIVE_READOUT": 3.84}
{"MUTATION_NOTATION": "T10H", "QUANTITATIVE_READOUT": 3.31}
{"MUTATION_NOTATION": "I17A", "QUANTITATIVE_READOUT": 2.04}
